Values from ChEMBL document CHEMBL4813977

Target desc: Mast/stem cell growth factor receptor Kit (Homo sapiens) (UniProt P10721)
Sequence (P10721 whole entry): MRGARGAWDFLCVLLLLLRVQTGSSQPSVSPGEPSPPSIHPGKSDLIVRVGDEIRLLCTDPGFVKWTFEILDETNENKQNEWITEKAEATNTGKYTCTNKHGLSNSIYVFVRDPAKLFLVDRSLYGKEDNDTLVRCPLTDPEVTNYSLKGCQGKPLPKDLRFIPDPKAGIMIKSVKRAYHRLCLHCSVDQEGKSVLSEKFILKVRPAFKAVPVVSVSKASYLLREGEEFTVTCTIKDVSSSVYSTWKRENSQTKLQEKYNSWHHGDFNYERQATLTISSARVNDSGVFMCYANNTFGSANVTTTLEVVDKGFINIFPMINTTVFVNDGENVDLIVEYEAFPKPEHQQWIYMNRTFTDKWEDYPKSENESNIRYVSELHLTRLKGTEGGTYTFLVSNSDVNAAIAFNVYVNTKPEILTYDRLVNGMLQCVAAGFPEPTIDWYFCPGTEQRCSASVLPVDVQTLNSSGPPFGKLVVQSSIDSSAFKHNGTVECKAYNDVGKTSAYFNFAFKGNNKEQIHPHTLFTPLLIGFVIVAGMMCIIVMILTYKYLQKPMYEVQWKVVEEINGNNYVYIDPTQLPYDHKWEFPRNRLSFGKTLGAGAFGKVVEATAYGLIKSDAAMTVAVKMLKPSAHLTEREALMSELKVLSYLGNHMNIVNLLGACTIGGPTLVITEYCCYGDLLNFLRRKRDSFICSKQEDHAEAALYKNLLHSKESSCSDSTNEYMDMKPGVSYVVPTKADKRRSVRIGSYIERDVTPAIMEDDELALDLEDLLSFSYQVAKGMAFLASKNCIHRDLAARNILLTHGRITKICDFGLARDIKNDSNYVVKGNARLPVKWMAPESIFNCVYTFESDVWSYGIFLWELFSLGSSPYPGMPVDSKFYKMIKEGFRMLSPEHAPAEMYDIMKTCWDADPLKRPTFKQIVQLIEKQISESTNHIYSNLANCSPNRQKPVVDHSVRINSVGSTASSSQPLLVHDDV
Condition details: dose 10.0 nM
Description: Inhibition of human c-KIT at 10 nM using poly[Glu:Tyr] (4:1) as substrate in presence of [gamma-33P]-ATP by radiometric assay relative to control
Measured property: inhibition (%)

>>> readout_value("Cc1ccc(NCc2ccc(C(F)(F)F)nc2)cc1NC(=O)c1cnc2cccnn12")
6

[I] CCN1CCN(Cc2ccc(C(=O)Nc3ccc(C)c(NC(=O)c4cnc5ncccn45)c3)cc2C(F)(F)F)CC1
[II] CCN1CCN(Cc2ccc(C(=O)Nc3ccc(C)c(NCc4cnc5cccnn45)c3)cc2C(F)(F)F)CC1
Data request: Lab note: record which item had the higher inhibition, I or II . Refer to your chosen item by its label in the answer.
Data returned: II
(II: 22%, I: 10%)

[P] CCN1CCN(Cc2ccc(C(=O)Nc3ccc(C)c(NC(=O)c4c[nH]cn4)c3)cc2C(F)(F)F)CC1
[Q] CCN1CCN(Cc2ccc(C(=O)Nc3ccc(C)c(NC(=O)c4cnn5ccccc45)c3)cc2C(F)(F)F)CC1
[R] FC(F)(F)c1ccc(CNc2ccc(Cc3c[nH]c4ncc(Cl)cc34)cn2)cn1
[S] COc1ccc(COc2ccc(Cc3cnc(N)nc3N)cc2OC)cc1
Data request: Ascending by inhibition, please: list the compounds accordingly. Please express your ranking as an ordered list of the labels.
Data returned: S, R, Q, P

###

Target desc: Mast/stem cell growth factor receptor Kit (Homo sapiens) (UniProt P10721)
Condition details: dose 100.0 nM
Description: Inhibition of human c-KIT at 100 nM using poly[Glu:Tyr] (4:1) as substrate in presence of [gamma-33P]-ATP by radiometric assay relative to control
Measured property: inhibition (%)

>>> readout_value("Cc1ccc(NCc2ccc(C(F)(F)F)nc2)cc1NC(=O)c1cnn2ccccc12")
45
>>> readout_value("CCN1CCN(Cc2ccc(C(=O)Nc3ccc(C)c(NC(=O)c4cnc5ccccn45)c3)cc2C(F)(F)F)CC1")
70
>>> readout_value("Cc1ccc(NCc2ccc(C(F)(F)F)nc2)cc1NC(=O)c1cnc2cccnn12")
25

[a] CCN1CCN(Cc2ccc(NC(=O)c3ccc(C)c(NC(=O)c4cnc5cccnn45)c3)cc2C(F)(F)F)CC1
[b] COc1ccc(COc2ccc(Cc3cnc(N)nc3N)cc2OC)cc1
[c] Cc1cn(-c2cc(NC(=O)c3ccc(C)c(Nc4nccc(-c5cccnc5)n4)c3)cc(C(F)(F)F)c2)cn1
[d] CCN1CCN(Cc2ccc(C(=O)Nc3ccc(C)c(NC(=O)c4ccn(C)n4)c3)cc2C(F)(F)F)CC1
[e] CCN1CCN(Cc2ccc(C(=O)Nc3ccc(C)c(NC(=O)c4cc[nH]n4)c3)cc2C(F)(F)F)CC1
Data request: Ascending by inhibition, please: list the compounds accordingly. Please express your ranking as an ordered list of the labels.
Data returned: b, e, c, d, a
(b: 8%, e: 17%, c: 33%, d: 54%, a: 98%)

###

Target desc: UniProt:P36888
Condition details: dose 10.0 nM
Measured property: inhibition (%)

These recorded examples may help you get a feel for the data.
>>> readout_value("COc1ccc(COc2ccc(Cc3cnc(N)nc3N)cc2OC)cc1")
4
>>> readout_value("FC(F)(F)c1ccc(CNc2ccc(Cc3c[nH]c4ncc(Cl)cc34)cn2)cn1")
1

[I] Cc1cn(-c2cc(NC(=O)c3ccc(C)c(Nc4nccc(-c5cccnc5)n4)c3)cc(C(F)(F)F)c2)cn1
[II] CNC(=O)c1cc(Oc2ccc3nc(N[C@H]4CCCC[C@H]4O)sc3c2)ccn1
[III] Cc1ccc(NC(=O)c2ccc(C(F)(F)F)nc2)cc1NC(=O)c1cnc2ccccn12
Data request: Ascending by inhibition, please: list the compounds accordingly. Please express your ranking as an ordered list of the labels.
Data returned: I, III, II
(I: 0%, III: 3%, II: 19%)

###

Target desc: Mast/stem cell growth factor receptor Kit (Homo sapiens) (UniProt P10721)
Condition details: dose 100.0 nM
Measured property: inhibition (%)

>>> readout_value("Cc1cn(-c2cc(NC(=O)c3ccc(C)c(NC(=O)c4cnc5ccccn45)c3)cc(C(F)(F)F)c2)cn1")
33

[A] CCN1CCN(Cc2ccc(C(=O)Nc3ccc(C)c(NC(=O)c4n[nH]c5ccccc45)c3)cc2C(F)(F)F)CC1
[B] FC(F)(F)c1ccc(CNc2ccc(Cc3c[nH]c4ncc(Cl)cc34)cn2)cn1
[C] CNC(=O)c1cc(Oc2ccc3nc(N[C@H]4CCCC[C@H]4O)sc3c2)ccn1
Data request: // ranking: key=inhibition, reverse=True Please express your ranking as an ordered list of the labels.
Data returned: A, B, C

[1] CCN1CCN(Cc2ccc(C(=O)Nc3ccc(C)c(NCc4cnc5ccc(OC)nn45)c3)cc2C(F)(F)F)CC1
[2] CCN1CCN(Cc2ccc(C(=O)Nc3ccc(C)c(NC(=O)c4n[nH]c5ncccc45)c3)cc2C(F)(F)F)CC1
[3] Cc1ccc(NC(=O)c2ccc(C(F)(F)F)nc2)cc1NC(=O)c1cnc2cccnn12
Data request: Ascending by inhibition, please: list the molecules accordingly. Please express your ranking as an ordered list of the labels.
Data returned: 3, 1, 2
(3: 32%, 1: 63%, 2: 98%)

[a] CCN1CCN(Cc2ccc(C(=O)Nc3ccc(C)c(NC(=O)c4cnc5cccnn45)c3)cc2C(F)(F)F)CC1
[b] CCN1CCN(Cc2ccc(C(=O)Nc3ccc(C)c(NC(=O)c4cnnc5ccccc45)c3)cc2C(F)(F)F)CC1
Data request: Lab note: record which item had the higher inhibition, a or b . Refer to your chosen item by its label in the answer.
Data returned: a
(a: 64%, b: 40%)

###

Target desc: Mast/stem cell growth factor receptor Kit (Homo sapiens)
Condition details: dose 10.0 nM
Measured property: inhibition (%)

These recorded examples may help you get a feel for the data.
>>> readout_value("Cc1ccc(NCc2ccc(C(F)(F)F)nc2)cc1NC(=O)c1cnc2ccccn12")
14
>>> readout_value("CCN1CCN(Cc2ccc(C(=O)Nc3ccc(C)c(NC(=O)c4ncc[nH]4)c3)cc2C(F)(F)F)CC1")
31
>>> readout_value("CCN1CCN(Cc2ccc(C(=O)Nc3ccc(C)c(NC(=O)c4cnc5ccccn45)c3)cc2C(F)(F)F)CC1")
30
>>> readout_value("Cc1ccc(NCc2ccc(C(F)(F)F)nc2)cc1NC(=O)c1cnn2ccccc12")
17
>>> readout_value("CCN1CCN(Cc2ccc(C(=O)Nc3ccc(C)c(NC(=O)c4cc[nH]n4)c3)cc2C(F)(F)F)CC1")
0

[a] Cc1cn(-c2cc(NC(=O)c3ccc(C)c(NC(=O)c4cnc5ccccn45)c3)cc(C(F)(F)F)c2)cn1
[b] Cc1cn(-c2cc(NC(=O)c3ccc(C)c(NC(=O)c4cnc5cccnn45)c3)cc(C(F)(F)F)c2)cn1
[c] CNC(=O)c1cc(Oc2ccc3nc(N[C@H]4CCCC[C@H]4O)sc3c2)ccn1
[d] Cc1ccc(NC(=O)c2ccc(C(F)(F)F)nc2)cc1NC(=O)c1cnc2cccnn12
[e] CCN1CCN(Cc2ccc(C(=O)Nc3ccc(C)c(NCc4cnc5ccc(OC)nn45)c3)cc2C(F)(F)F)CC1
Data request: // ranking: key=inhibition, reverse=True Please express your ranking as an ordered list of the labels.
Data returned: e, b, d, c, a
(e: 25%, b: 7%, d: 4%, c: 2%, a: 0%)

[1] Cc1cn(-c2cc(NC(=O)c3ccc(C)c(Nc4nccc(-c5cccnc5)n4)c3)cc(C(F)(F)F)c2)cn1
[2] Cc1ccc(NC(=O)c2ccc(C(F)(F)F)nc2)cc1NC(=O)c1cnn2ccccc12
Data request: Problem: Given the entries 1 and 2 , determine which has the lower reported inhibition. Refer to your chosen item by its label in the answer.
Data returned: 1
(1: 2%, 2: 30%)

###

Target desc: Receptor-type tyrosine-protein kinase FLT3 (Homo sapiens) (UniProt P36888)
Sequence (P36888 whole entry): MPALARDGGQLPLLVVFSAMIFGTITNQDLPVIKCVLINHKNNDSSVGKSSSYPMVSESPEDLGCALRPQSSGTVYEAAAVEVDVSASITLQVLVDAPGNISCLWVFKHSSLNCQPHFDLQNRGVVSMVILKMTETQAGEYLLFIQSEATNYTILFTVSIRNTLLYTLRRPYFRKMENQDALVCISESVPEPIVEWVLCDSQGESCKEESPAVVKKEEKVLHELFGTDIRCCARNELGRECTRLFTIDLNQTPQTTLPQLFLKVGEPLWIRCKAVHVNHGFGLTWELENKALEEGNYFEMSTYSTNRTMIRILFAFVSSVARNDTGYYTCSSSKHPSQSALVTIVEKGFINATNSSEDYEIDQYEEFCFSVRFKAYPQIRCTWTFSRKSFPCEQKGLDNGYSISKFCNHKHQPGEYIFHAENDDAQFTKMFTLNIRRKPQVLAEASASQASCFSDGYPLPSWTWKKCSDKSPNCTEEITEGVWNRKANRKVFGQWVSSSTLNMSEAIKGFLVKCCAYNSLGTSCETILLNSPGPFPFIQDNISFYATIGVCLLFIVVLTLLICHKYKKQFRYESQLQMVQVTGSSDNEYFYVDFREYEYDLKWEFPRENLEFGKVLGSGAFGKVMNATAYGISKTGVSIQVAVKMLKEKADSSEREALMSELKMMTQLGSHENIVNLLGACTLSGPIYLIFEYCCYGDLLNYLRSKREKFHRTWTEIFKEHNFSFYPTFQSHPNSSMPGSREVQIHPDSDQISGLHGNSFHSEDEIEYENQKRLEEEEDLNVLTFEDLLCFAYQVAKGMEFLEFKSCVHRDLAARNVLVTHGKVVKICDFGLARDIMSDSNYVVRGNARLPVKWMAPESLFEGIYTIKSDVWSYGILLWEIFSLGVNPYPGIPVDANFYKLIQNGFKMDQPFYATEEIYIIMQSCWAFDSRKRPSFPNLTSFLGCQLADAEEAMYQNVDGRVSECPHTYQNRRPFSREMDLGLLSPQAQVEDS
Condition details: dose 100.0 nM
Measured property: inhibition (%)

>>> readout_value("Cc1ccc(NC(=O)c2ccc(C(F)(F)F)nc2)cc1NC(=O)c1cnc2ccccn12")
4
>>> readout_value("COc1ccc(COc2ccc(Cc3cnc(N)nc3N)cc2OC)cc1")
11

[A] Cc1cn(-c2cc(NC(=O)c3ccc(C)c(Nc4nccc(-c5cccnc5)n4)c3)cc(C(F)(F)F)c2)cn1
[B] FC(F)(F)c1ccc(CNc2ccc(Cc3c[nH]c4ncc(Cl)cc34)cn2)cn1
[C] CNC(=O)c1cc(Oc2ccc3nc(N[C@H]4CCCC[C@H]4O)sc3c2)ccn1
Data request: // ranking: key=inhibition, reverse=True Please express your ranking as an ordered list of the labels.
Data returned: C, B, A

###

Target desc: Mast/stem cell growth factor receptor Kit (Homo sapiens) (UniProt P10721)
Condition details: dose 100.0 nM
Measured property: inhibition (%)

>>> readout_value("Cc1ccc(NC(=O)c2ccc(C(F)(F)F)nc2)cc1NC(=O)c1cnn2ccccc12")
53
>>> readout_value("Cc1ccc(NC(=O)c2ccc(C(F)(F)F)nc2)cc1NC(=O)c1cnc2ccccn12")
58
>>> readout_value("Cc1cn(-c2cc(NC(=O)c3ccc(C)c(NC(=O)c4cnc5cccnn45)c3)cc(C(F)(F)F)c2)cn1")
50
>>> readout_value("CCN1CCN(Cc2ccc(C(=O)Nc3ccc(C)c(NC(=O)c4c[nH]cn4)c3)cc2C(F)(F)F)CC1")
89
>>> readout_value("CCN1CCN(Cc2ccc(C(=O)Nc3ccc(C)c(NC(=O)c4cnn5ccccc45)c3)cc2C(F)(F)F)CC1")
73

[P] Cc1ccc(NCc2ccc(C(F)(F)F)nc2)cc1NC(=O)c1cnc2ccccn12
[Q] CCN1CCN(Cc2ccc(C(=O)Nc3ccc(C)c(NC(=O)c4ncc[nH]4)c3)cc2C(F)(F)F)CC1
Data request: Lab note: record which item had the higher inhibition, P or Q . Refer to your chosen item by its label in the answer.
Data returned: Q
(Q: 81%, P: 56%)
